TGI reference
System: HOP-62 NSCLC
assay-summary: NCI tumour cell line growth inhibition, 48 h

>  <molecule>
CC(C)N(CCCNC(=O)Nc1ccc(C(C)(C)C)cc1)C[C@H]1O[C@@H](n2ccc3c(N)ncnc32)[C@H](O)[C@@H]1O

>  <TGI>
> 100 µM

$$$$
>  <molecule>
Cc1cccc(C)c1NC(=O)C(=O)C(C#N)c1ccccc1 (stereo unspecified)

>  <TGI>
> 100 µM

$$$$
>  <molecule>
O=c1c2ccccc2n2c(-c3ccc(O)cc3)nnc2n1-c1ccccc1

>  <TGI>
41 µM

$$$$
>  <molecule>
COc1ccc(C(=O)c2sc3nc4c(cc3c2N)CCCC4)cc1OC

>  <TGI>
15.3 µM

$$$$
>  <molecule>
CC(C)(C)OC(=O)NC(CSCc1ccc(C(=O)c2ccccc2)cc1)C(=O)O (stereo unspecified)

>  <TGI>
> 100 µM

$$$$
>  <molecule>
c1ccc2nc(N/N=C3\CCCCC3C3CCCCC3)ccc2c1 (stereo unspecified)

>  <TGI>
25.7 µM

$$$$
>  <molecule>
Clc1ccc(Cn2c(CN3CCCC3)nc3ccccc32)cc1

>  <TGI>
61.5 µM

$$$$
>  <molecule>
CC(=O)Oc1cc(C(C)C)c(OCCN(C)C)cc1C

>  <TGI>
> 100 µM

$$$$
>  <molecule>
CCN(CC)CCN1C(=O)CC2[C@@H]3CCc4cc(OC)ccc4C3CC[C@]2(C)C1=O (stereo partly specified)

>  <TGI>
54.2 µM

$$$$
>  <molecule>
Cn1nc(-c2cccc(-c3nn(C)c(=NCCO)s3)n2)sc1=NCCO

>  <TGI>
> 100 µM

$$$$
>  <molecule>
CC(=O)Nc1ccc(-c2nnc(SCC(=O)Nc3ccc(Cl)cc3Cl)o2)cc1

>  <TGI>
> 100 µM

$$$$
>  <molecule>
COc1ccc(C(=S)N(C)NC(=O)CC(=O)NN(C)C(=S)c2ccc(OC)cc2)cc1

>  <TGI>
> 100 µM

$$$$
>  <molecule>
COc1ccc(/C(Cl)=C(\CN(C)C)c2ccc(OC)c(OC)c2)cc1OC

>  <TGI>
> 100 µM

$$$$
>  <molecule>
COC(=O)C1=C(C=O)C2C=CC1C2 (stereo unspecified)

>  <TGI>
> 100 µM

$$$$
>  <molecule>
CC/C=C/C(CC)C/C(C)=C\[C@]1(CC)C[C@H](CC)[C@H](CC(=O)O)OO1 (stereo partly specified)

>  <TGI>
2.2 µM

$$$$
>  <molecule>
C=C(C)c1cc(C(C)(C)C)cc(C(=C)C)c1S(C)(=O)=O

>  <TGI>
> 100 µM

$$$$
>  <molecule>
CN1CCCC2[C@@H]3CCC4=C(O)C(=O)CC[C@]4(C)C3CC[C@@]21C (stereo partly specified)

>  <TGI>
> 100 µM

$$$$
>  <molecule>
Cc1ccc(C(=O)Nc2ccc(S(=O)(=O)O)c3cc(S(=O)(=O)O)cc(S(=O)(=O)O)c23)cc1N

>  <TGI>
> 100 µM

$$$$
>  <molecule>
Cn1c(-c2ccccc2)cc(-c2cccs2)c1-c1ccsc1

>  <TGI>
> 100 µM

$$$$
>  <molecule>
CCC12C=CCN3CCC4(c5cc(C6(C(=O)OC)CCCCCc7c6[nH]c6ccccc76)c(OC)cc5N(C)C4C(O)(C(=O)OC)C1OC(C)=O)C32 (stereo unspecified)

>  <TGI>
13.2 µM

$$$$
>  <molecule>
Cc1csc2nc(-c3ccncc3)cn12

>  <TGI>
> 100 µM

$$$$
